Tested on: HCT-116 (colon cancer)
TEST PROTOCOL: MTT cell viability assay, HCT-116
Format: cell-based, human
RUN PARAMETERS: MTT assay, 72 h of incubation
pIC50: −log10 of the molar value.
Recorded pIC50 by entry

- SMILES STRING: "Cc1cc(S(=O)(=O)N=C2NCCN2Cc2ccc(C(F)(F)F)cc2)c(SCc2nc(N)nc(N3CCN(Cc4ccccc4)CC3)n2)cc1Cl"
  pIC50: 5.30
- SMILES STRING: "Cc1cc(S(=O)(=O)N=C2NCCN2Cc2ccccc2)c(SCc2nc(N)nc(N3CC=C(c4ccc(F)cc4)CC3)n2)cc1Cl"
  pIC50: 5.28
- SMILES STRING: "Cc1cc(S(=O)(=O)N=C2NCCN2Cc2cc(C(F)(F)F)cc(C(F)(F)F)c2)c(SCc2nc(N)nc(N3CCN(c4ccccc4)CC3)n2)cc1Cl"
  pIC50: 5.44
- SMILES STRING: "Cc1cc(S(=O)(=O)N=C2NCCCN2Cc2ccc(C(F)(F)F)cc2)c(SCc2nc(N)nc(N3CCN(Cc4ccccc4)CC3)n2)cc1Cl"
  pIC50: 5.26

* * *

Tested on: A2780 (ovarian carcinoma cell line)
TEST PROTOCOL: MTT assay, wild-type p53 ovarian cancer cells A2780
Assay type: cell-based
RUN PARAMETERS: 72 h of incubation
pIC50: −log10 of the molar value.
MEASUREMENT NAME: pIC50

- MOLECULE: "N.N.[Cl][Pt][Cl] [cisplatin, reference compound]"
  REPORTED VALUE: 5.85
